Test system: P. falciparum (NF54 or 3D7 strain)
Test: Assay for P. falciparum proliferation in infected human blood cells (SYBR Green)
Type: cell-based, Plasmodium falciparum
Conditions: Plasmodium falciparum, Erythrocyte, 72 h, NF54 or 3D7 infected human erythrocytes, 72 hours; read-out: EC50 (nM), inhibitory efficacy in delaying P. falciparum proliferation in infected human blood cells
measuredMetric: EC50 (nM)
Numbers only, in nM.

Examples with answers:
CN(C(=O)c1cn2c(-c3ccc(-c4ccn[nH]4)cc3)cnc2cn1)c1ccc(Cl)nc1 ... 149
Cc1ccc(-c2cnc3cnc(C(=O)N(C)c4ccc(Cl)cc4Cl)cn23)cc1 ... 1370
CN(Cc1ccc(F)cc1)C(=O)c1cn2c(-c3ccc(C(F)(F)F)cc3)cnc2cn1 ... 7390
CN(C)CCN(C(=O)c1cn2c(-c3ccc(C(F)(F)F)cc3)cnc2cn1)c1ccc(C#N)cc1 ... 439
CN(C)Cc1ccc(-c2cnc3cnc(C(=O)N(C)c4ccc(C#N)cc4)cn23)cc1 ... 4600

// input: 6 compounds below; output: EC50 for each
1. CC(C)[C@@H](N)CC(=O)Nc1ccc(-c2cnc3cnc(C(=O)N(C)c4ccc(C#N)cc4)cn23)cc1
2. COc1cccc(N(C)C(=O)c2cn3c(-c4ccc(C(F)(F)F)cc4)cnc3cn2)n1
3. CN(C(=O)c1cn2c(-c3ccc(C(F)(F)F)cc3)cnc2cn1)c1cnc(Br)cn1
4. COC(=O)Nc1ccc(-c2cnc3cnc(C(=O)N(C)c4ccc(Cl)nc4)cn23)cc1
5. CN(C(=O)c1cn2c(-c3ccc4c(=O)[nH]ccc4c3)cnc2cn1)c1ccc(C#N)cc1
6. CN(Cc1cn2c(-c3ccc4c(cnn4C)c3)cnc2cn1)c1ccc(F)cc1

Marked response:
[240, 784, 4510, 226, 558, 21]

Need EC50 for each of these compounds.
1. CN(C(=O)c1cn2c(-c3ccc(Cl)cc3)cnc2cn1)c1ccc(F)c(F)c1
2. CN(C(=O)c1cn2c(-c3ccc(Cl)cn3)cnc2cn1)c1ccc(C#N)cc1
3. CN(C(=O)c1cn2c(-c3ccc4[nH]ncc4c3)cnc2cn1)c1ccc(C#N)cc1
4. CN(C(=O)c1cn2c(-c3ccc(N)nc3)cnc2cn1)c1ccc(C#N)cc1

Marked response:
103
9350
648
295

Exam item: Look up and report EC50, with P. falciparum (NF54 or 3D7 strain) as system, for `CC1(C)CCc2cc(F)ccc2N1C(=O)c1cn2c(-c3ccc(C(F)(F)F)cc3)cnc2cn1`
Marked response: 21

---

Test system: P. falciparum (NF54 or 3D7 strain)
Experiment: Assay for P. falciparum proliferation in infected human blood cells (SYBR Green)
Assay type: cell-based, Plasmodium falciparum
Details: Plasmodium falciparum, Erythrocyte, 72 h, NF54 or 3D7 infected human erythrocytes, 72 hours; read-out: EC50 (nM), inhibitory efficacy in delaying P. falciparum proliferation in infected human blood cells
measuredMetric: EC50 (nM)
Numbers only, in nM.

Sample answers from the record:
CN(C(=O)c1cn2c(-c3ccc(C(N)=O)cc3)cnc2cn1)c1ccc(F)c(F)c1 ... 74
CN(C(=O)c1cn2c(-c3ccc(C(F)(F)F)cc3)cnc2cn1)c1ccc(-n2cncn2)nc1 ... 6140
CN(C(=O)c1cn2c(-c3ccc(C(F)(F)F)cc3)cnc2cn1)c1ccc(F)nc1 ... 214
CN(C(=O)c1cn2c(-c3ccc(NCCN4CCOCC4)nc3)cnc2cn1)c1ccc(C#N)cc1 ... 7850
CNc1nnc(-c2ccc(-c3cnc4cnc(C(=O)N(C)c5ccc(C#N)cc5)cn34)cc2)s1 ... 9
CN(C)Cc1ccc(-c2cnc3cnc(C(=O)N(C)c4ccc(Cl)nc4)cn23)cc1 ... 762
CN(C(=O)c1cn2c(-c3ccc(C(C)(F)F)cc3)cnc2cn1)c1ccc(C#N)cc1 ... 37

Please turn your attention to the following entry.
Exam item: Give reported EC50 value for `Cc1ccc(-c2cnc3cnc(C(=O)N(C)c4ccc(F)cc4)cn23)cc1`
Marked response: 110
